- Tested on: HL-60
- assay explanation: Cytotoxicity against human HL60 cells
- Assay type: cell-based
Reported log(1/ID50) values follow for various compounds
Form rule: numeric answer, no unit written next to it.

Previously resolved entries follow.
compound: C[C@]12CCc3c(ccc4cc(O)ccc34)[C@@H]1CCC2=O [EQUILENIN]
log(1/ID50): 3.9
//
compound: CCCOc1ccc(O)cc1 [1-hydroxy-4-propoxybenzene]
log(1/ID50): 3.7
//
compound: CCCCc1ccc(O)cc1.Cl
log(1/ID50): 3.52
//
compound: COc1ccc(O)cc1 [MEQUINOL]
log(1/ID50): 3.6
//
compound: Cl.Nc1ccc(O)cc1 [4-AMINOPHENOL HYDROCHLORIDE]
log(1/ID50): 4.5

Ask: Tell me reported log(1/ID50) for Oc1ccccc1 [PHENOL] , tested with HL-60.
Result: 3.05

Ask: // map C[C@]12CC[C@@H]3c4ccc(O)cc4CC[C@H]3[C@@H]1CC[C@@H]2O [ESTRADIOL] to recorded log(1/ID50) (system: HL-60)
Result: 3.6

Ask: Identify the measured log(1/ID50) of CC/C(=C(/CC)c1ccc(O)cc1)c1ccc(O)cc1 [DIETHYLSTILBESTROL] for HL-60.
Result: 4

Ask: # value lookup — system HL-60, readout log(1/ID50), item Cc1ccc(O)cc1 [p-CRESOL]
Result: 3.35

###

Known log(1/ID50) of a selection of molecules
- System: L1210
- assay explanation: Cytotoxicity against mouse L1210 cells
- details: mouse, l1210
Give only the figure.

molecule: Cc1cccc(O)c1 [METACRESOL]
observed result: 3.54
--
molecule: CCOc1ccccc1O [1-hydroxy-2-ethoxybenzene]
observed result: 3.25
--
molecule: CC(C)(C)c1cc(O)cc(C(C)(C)C)c1O
observed result: 4.16
--
molecule: Cl.Nc1ccc(O)cc1 [4-AMINOPHENOL HYDROCHLORIDE]
observed result: 5.09
--
molecule: Cc1ccccc1O [ORTHOCRESOL]
observed result: 3.52
--
molecule: Oc1ccccc1I
observed result: 3.95

Ask: Lab note: need log(1/ID50) with L1210 for entry `CC(C)(C)c1cc(C#N)cc(C(C)(C)C)c1O` , please look it up.
Result: 4.68

###

- Test system: L1210
- assay explanation: Cytotoxicity against mouse L1210 cells
- details: mouse, l1210
Recorded log(1/ID50) values for a group of compounds are listed next.
Answer with the value's number alone.

Answered cases to consult:
compound: CCOc1ccc(O)cc1 [1-hydroxy-4-ethoxybenzene]
log(1/ID50): 4.64

compound: Cc1ccc(O)c(C(C)(C)C)c1
log(1/ID50): 3.8

compound: NC(=O)c1ccc(O)cc1
log(1/ID50): 2.48

compound: CC(C)(C)c1cc([N+](=O)[O-])cc(C(C)(C)C)c1O
log(1/ID50): 4.9

compound: CC(=O)c1ccc(O)c(C)c1
log(1/ID50): 3.14

compound: CCCc1ccc(O)cc1
log(1/ID50): 4.04

compound: Cc1cc(C(C)(C)C)c(O)c(C(C)(C)C)c1 [BUTYLATED HYDROXYTOLUENE]
log(1/ID50): 4.04

compound: Cc1cc(Br)ccc1O
log(1/ID50): 3.46

compound: Oc1ccccc1O
log(1/ID50): 3.75

compound: CC(C)(C)c1cc(C(C)(C)C)c(O)c(C(C)(C)C)c1
log(1/ID50): 5.05

Ask: # value lookup — system L1210, readout log(1/ID50), item `COc1ccc(O)c(C)c1`
Result: 3.39

Ask: Given the entry `Oc1ccc(Cl)cc1` , what log(1/ID50) was observed with L1210?
Result: 4.29

Ask: Which measured log(1/ID50) belongs to `CC(C)(C)c1cccc(C(C)(C)C)c1O` , tested on L1210?
Result: 3.85

Ask: Hello, I am looking for reported log(1/ID50) with L1210 for `CCc1cc(C(C)(C)C)c(O)c(C(C)(C)C)c1` . Could you help?
Result: 3.91

Ask: # value lookup — system L1210, readout log(1/ID50), item `CC(C)(C)c1ccccc1O`
Result: 4

Ask: L1210 / log(1/ID50) / `COc1cccc(OC)c1O` : value?
Result: 3.86

Ask: Hi! What's the reported log(1/ID50) for Oc1ccc(O)cc1 [HYDROQUINONE] on L1210?
Result: 4.59

Ask: Value wanted: log(1/ID50) (L1210) of entry `COCc1cc(C(C)(C)C)c(O)c(C(C)(C)C)c1`
Result: 3.93

Ask: // lookup log(1/ID50) | system=L1210 | key= `N#Cc1ccccc1O`
Result: 3.3

Ask: GET /values?readout=log(1/ID50)&system=L1210&item= `CC(C)(C)c1ccc(O)c(C(C)(C)C)c1`
Result: 4.24

Ask: Missing value: log(1/ID50), L1210, entry `Oc1ccc(I)cc1` . Fill in?
Result: 3.86

Ask: Lab note: need log(1/ID50) for `CCCc1ccccc1O` on L1210, anyone have it?
Result: 3.49

Ask: # query: log(1/ID50) | item `O=[N+]([O-])c1ccc(O)cc1` | system: L1210
Result: 3.45

Ask: What log(1/ID50) appears in the records for this compound with L1210? `CCCCOc1ccc(O)cc1`
Result: 5.2

Ask: // map `CC(=O)Nc1ccc(O)cc1` to recorded log(1/ID50) (system: L1210)
Result: 3.73

Ask: # get_value(readout= log(1/ID50), system= L1210) for COc1ccc(O)c(C(C)(C)C)c1.COc1ccc(O)cc1C(C)(C)C [BUTYLATED HYDROXYANISOLE]
Result: 3.82

Ask: Lookup: log(1/ID50) / L1210 / `Oc1ccccc1Br`
Result: 3.44

Ask: Kindly state the measured log(1/ID50) obtained for `CC(=O)Nc1cccc(O)c1` with L1210.
Result: 2.65

Ask: Request - read-out log(1/ID50) | tested on L1210 | compound `N#Cc1ccc(O)cc1`
Result: 3.44

Ask: Fill in the recorded log(1/ID50) for this compound, with L1210 as test system: `NS(=O)(=O)c1ccc(O)cc1`
Result: 2.5

Ask: Checklist item: log(1/ID50) tested on L1210, entry `COc1cc(/C=C/C=O)cc(OC)c1O` , value?
Result: 4.25

Ask: Please provide the recorded log(1/ID50) for `OCc1ccccc1O` , tested on L1210.
Result: 2.7

Ask: Which log(1/ID50) is reported with L1210 for this entry: COc1cccc(O)c1 [1-hydroxy-3-methoxybenzene] ?
Result: 3.71

Ask: Request body: readout log(1/ID50), system L1210, query `Cc1cc(F)ccc1O` . Return the value.
Result: 3.09
